Molecular target: PD-1 (UniProt Q15116 25-167, limits assumed)
Sequence (Q15116 25-167 limits assumed): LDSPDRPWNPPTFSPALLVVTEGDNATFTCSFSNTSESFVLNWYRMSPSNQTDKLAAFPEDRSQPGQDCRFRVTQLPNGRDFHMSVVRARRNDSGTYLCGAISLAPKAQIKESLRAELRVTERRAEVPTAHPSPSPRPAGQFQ
Test: ELISA; S13 on the Cys
measure: binding activity, % of wild type (%)
Numbers only, in %.

Would you please look over these solved cases?
binder	quantitative readout
anti-PD-1 antibody 2 HC Ala24Cys (antibody, human IgG4 S228P, kappa, V domains shown, arm on Cys24 as named in each row) VH: QVQLVESGGGVVQPGRSLRLDCKCSGITFSNSGMHWVRQAPGKGLEWVAVIWYDGSKRYYADSVKGRFTISRDNSKNTLFLQMNSLRAEDTAVYYCATNDDYWGQGTLVTVSS VL: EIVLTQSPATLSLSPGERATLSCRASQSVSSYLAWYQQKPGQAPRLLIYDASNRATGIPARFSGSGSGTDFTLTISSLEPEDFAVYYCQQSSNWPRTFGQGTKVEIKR	32.3
anti-PD-1 antibody 2 HC Gly44Cys (antibody, human IgG4 S228P, kappa, V domains shown, arm on Cys44 as named in each row) VH: QVQLVESGGGVVQPGRSLRLDCKASGITFSNSGMHWVRQAPGKCLEWVAVIWYDGSKRYYADSVKGRFTISRDNSKNTLFLQMNSLRAEDTAVYYCATNDDYWGQGTLVTVSS VL: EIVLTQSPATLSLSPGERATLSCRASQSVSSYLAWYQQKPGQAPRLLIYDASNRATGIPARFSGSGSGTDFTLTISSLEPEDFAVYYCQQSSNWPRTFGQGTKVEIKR	30.8
anti-PD-1 antibody 2 HC Gly42Cys (antibody, human IgG4 S228P, kappa, V domains shown, arm on Cys42 as named in each row) VH: QVQLVESGGGVVQPGRSLRLDCKASGITFSNSGMHWVRQAPCKGLEWVAVIWYDGSKRYYADSVKGRFTISRDNSKNTLFLQMNSLRAEDTAVYYCATNDDYWGQGTLVTVSS VL: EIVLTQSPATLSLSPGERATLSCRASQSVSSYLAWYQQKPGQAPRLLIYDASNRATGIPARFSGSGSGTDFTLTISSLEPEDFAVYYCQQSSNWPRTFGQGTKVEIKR	29.8
anti-PD-1 antibody 2 HC Ala88Cys (antibody, human IgG4 S228P, kappa, V domains shown, arm on Cys88 as named in each row) VH: QVQLVESGGGVVQPGRSLRLDCKASGITFSNSGMHWVRQAPGKGLEWVAVIWYDGSKRYYADSVKGRFTISRDNSKNTLFLQMNSLRCEDTAVYYCATNDDYWGQGTLVTVSS VL: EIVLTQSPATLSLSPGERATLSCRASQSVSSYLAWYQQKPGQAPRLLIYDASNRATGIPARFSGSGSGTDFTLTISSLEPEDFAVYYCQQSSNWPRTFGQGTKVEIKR	27
anti-PD-1 antibody 2 HC Ala92Cys (antibody, human IgG4 S228P, kappa, V domains shown, arm on Cys92 as named in each row) VH: QVQLVESGGGVVQPGRSLRLDCKASGITFSNSGMHWVRQAPGKGLEWVAVIWYDGSKRYYADSVKGRFTISRDNSKNTLFLQMNSLRAEDTCVYYCATNDDYWGQGTLVTVSS VL: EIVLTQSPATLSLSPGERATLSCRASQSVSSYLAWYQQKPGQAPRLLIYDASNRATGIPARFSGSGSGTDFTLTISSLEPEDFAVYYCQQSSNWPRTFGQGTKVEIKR	15
anti-PD-1 antibody 2 HC Ala40Cys (antibody, human IgG4 S228P, kappa, V domains shown, arm on Cys40 as named in each row) VH: QVQLVESGGGVVQPGRSLRLDCKASGITFSNSGMHWVRQCPGKGLEWVAVIWYDGSKRYYADSVKGRFTISRDNSKNTLFLQMNSLRAEDTAVYYCATNDDYWGQGTLVTVSS VL: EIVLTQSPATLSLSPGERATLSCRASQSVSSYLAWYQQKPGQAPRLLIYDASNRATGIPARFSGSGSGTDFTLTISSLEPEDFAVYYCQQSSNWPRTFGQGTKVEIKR	37.2

I'm hoping you can list binding activity, % of wild type for every binder here, please.
1. anti-PD-1 antibody 2 HC Thr28Cys (antibody, human IgG4 S228P, kappa, V domains shown, arm on Cys28 as named in each row) VH: QVQLVESGGGVVQPGRSLRLDCKASGICFSNSGMHWVRQAPGKGLEWVAVIWYDGSKRYYADSVKGRFTISRDNSKNTLFLQMNSLRAEDTAVYYCATNDDYWGQGTLVTVSS VL: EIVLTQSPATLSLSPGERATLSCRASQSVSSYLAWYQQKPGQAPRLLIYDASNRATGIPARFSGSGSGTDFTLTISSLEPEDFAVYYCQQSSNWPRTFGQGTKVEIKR
2. anti-PD-1 antibody 2 HC Thr98Cys (antibody, human IgG4 S228P, kappa, V domains shown, arm on Cys98 as named in each row) VH: QVQLVESGGGVVQPGRSLRLDCKASGITFSNSGMHWVRQAPGKGLEWVAVIWYDGSKRYYADSVKGRFTISRDNSKNTLFLQMNSLRAEDTAVYYCACNDDYWGQGTLVTVSS VL: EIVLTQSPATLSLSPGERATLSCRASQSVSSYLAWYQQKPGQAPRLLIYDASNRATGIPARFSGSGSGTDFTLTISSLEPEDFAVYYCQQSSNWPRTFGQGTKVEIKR
3. anti-PD-1 antibody 2 HC Thr78Cys (antibody, human IgG4 S228P, kappa, V domains shown, arm on Cys78 as named in each row) VH: QVQLVESGGGVVQPGRSLRLDCKASGITFSNSGMHWVRQAPGKGLEWVAVIWYDGSKRYYADSVKGRFTISRDNSKNCLFLQMNSLRAEDTAVYYCATNDDYWGQGTLVTVSS VL: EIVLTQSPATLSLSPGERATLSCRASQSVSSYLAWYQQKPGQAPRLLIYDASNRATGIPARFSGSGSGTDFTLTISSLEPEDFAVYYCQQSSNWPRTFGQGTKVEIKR
4. anti-PD-1 antibody 2 HC Ser30Cys (antibody, human IgG4 S228P, kappa, V domains shown, arm on Cys30 as named in each row) VH: QVQLVESGGGVVQPGRSLRLDCKASGITFCNSGMHWVRQAPGKGLEWVAVIWYDGSKRYYADSVKGRFTISRDNSKNTLFLQMNSLRAEDTAVYYCATNDDYWGQGTLVTVSS VL: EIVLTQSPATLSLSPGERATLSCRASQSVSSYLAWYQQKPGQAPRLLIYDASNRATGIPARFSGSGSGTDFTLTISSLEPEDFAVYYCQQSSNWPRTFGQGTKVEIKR

1. 15
2. 32.1
3. 42.4
4. 15.3
